All figures here come from PubChem BioAssay (NCI).

tested on: A549/ATCC NSCLC; assay: NCI-60 one-dose screen, 48 h; conditions: 10 µM unless noted
This is part of a sample that, as a whole, favours compounds with a hit. Of some 83,000 tested, about 20% had one in any assay. Activity calls are given as the source filed them. How the source made its calls: active means growth percent below 10; inactive means the rest.
Choose the fitting class; nothing outside true (active), false (inactive) is accepted.

Study these solved cases before continuing.
compound	group_label
N#Cc1ccc(NC(=O)Nc2nc3ccc(OC(F)(F)F)cc3s2)cc1	true
O=C1/C(=C\c2cccn2C(=O)c2ccccc2)c2ccccc2N1c1c(Cl)cccc1Cl	false
CCOC(=O)Nc1ccc2nc(-c3cscn3)[nH]c2c1	false

Req: Assay result, entry OC(c1cc(-c2ccc(C(F)(F)F)cc2)nc(-c2ccc(C(F)(F)F)cc2)c1)C1CCCCN1 (stereo not given) — outcome?
Resp: true

Req: Next compound: `COc1ccc(/C=C2\Cc3c(Br)cccc3C2=O)c(OC)c1`
Resp: false

Req: Next compound: `C=C(CN1CC=CCC1)[C@@H]1CC[C@]2(C(=O)OC)CC[C@]3(C)[C@H](CC[C@@H]4[C@@]5(C)CC[C@H](OC(C)=O)C(C)(C)[C@@H]5CC[C@]43C)[C@@H]12`
Resp: false

Req: Next compound: O=C1OCC2=C1C(c1cccc(Br)c1)c1cc3c(cc1N2CCO)OCCO3 (stereo not given)
Resp: false

Req: Next compound: `COc1ccc(Nc2ncnc3c2sc2nc(C)cc(C)c23)cc1`
Resp: false

Req: Next compound: NS(=O)(=O)c1ccc(N2N=C(c3ccc(Br)cc3)CC2c2cn(-c3ccccc3)nc2-c2ccc(Cl)cc2)cc1 (stereo not given)
Resp: false

Req: Next compound: COc1ccc(C2C3CCc4ccccc4C3=NN2C(=O)c2cc(OC)c(OC)c(OC)c2)cc1O (stereo not given)
Resp: false

Req: Next compound: `CCN(C)CCCOc1ccc(/C(=C(\C)Cc2cccc(OC)c2)c2ccc(OC(C)=O)cc2)cc1`
Resp: false

Req: Next compound: COc1cc(NCCCCC(C)N)c2nccc(C)c2c1 (stereo not given)
Resp: false

Req: Next compound: `O=C(/C=C/c1ccccc1)n1c(-c2ccccc2)nc2ccccc21`
Resp: false

Req: Next compound: `N#Cc1c(N)c(C(=O)c2ccc3c(c2)OCCO3)n2c1CCCC2`
Resp: false

Req: Next compound: `COc1ccc(C(=O)/C=C/c2cn(-c3ccccc3)nc2-c2cccc(Nc3ccnc4cc(Cl)ccc34)c2)cc1`
Resp: false

Req: Next compound: `CCSc1ccc([C@@H]2[C@@H](O)C(=O)N2c2cc(OC)c(OC)c(OC)c2)cc1`
Resp: false

Req: Next compound: CCN(CC)Cc1cc(Nc2nc(NC3CCC(N(C)C)CC3)c3ccccc3n2)ccc1OC (stereo not given)
Resp: false

Req: Next compound: COc1cc(C2CC(c3ccc(Cl)cc3)=NN2C=O)ccc1OS(=O)(=O)c1ccc(C)cc1 (stereo not given)
Resp: false

Req: Next compound: `COc1c(B(O)O)cccc1-c1nc2c(F)cc3n[nH]c(C)c3c2c2c1CCCC2`
Resp: true

Req: Next compound: COc1cc(C2Nc3ccccc3S2)cc(CN2CCOCC2)c1O (stereo not given)
Resp: false
